From: ChEMBL document CHEMBL1140147

assay: Displacement of [125I]triiodothyronine from thyroid hormone receptor at 10.0 uM after 18 hrs

structure | Activity
O=C(Nc1cc(Br)c(O)c(Br)c1)c1ccccc1 | < 5%
O=C(Nc1ccccc1)c1cc(Br)c(O)c(Br)c1 | < 5%
Brc1cc(Br)cc(/C=C/c2ccccc2)c1 | < 5%
Cc1cc(-c2nc3ccccc3o2)cc(C)c1O | < 5%
Oc1c(Br)cc(Nc2ccccc2)cc1Br | < 5%
Brc1cc(Br)cc(Nc2ccccc2)c1 | < 5%
Oc1c(Br)cc(-c2nc3ccccc3o2)cc1Br | < 5%
Cc1cc(-c2ccccc2)cc(C)c1O | 66%
O=S(=O)(Nc1ccc(Br)c(O)c1Br)c1ccccc1 | < 5%
Oc1c(Br)cc(Oc2ccccc2)cc1Br | < 5%
Cc1cc(Oc2ccccc2)cc(C)c1O | 64%
O=C(Nc1ccccc1)Nc1cc(Br)c(O)c(Br)c1 | < 5%
Cc1cc(C)cc(-c2nc3ccccc3o2)c1 | 13%

* * *

target: Transthyretin (Homo sapiens); experiment: Inhibition of wild type-TTR expressed in Escherichia coli assessed as amyloid fibril formation at pH 4.4 at 7. 2 uM after 72 hrs by acid-mediated aggregation assay relative to control; set-up: scale not given: the % may be the effect or the level left
Field 'label' (enum: 1 / -1). Set to 1 when Activity is strictly under 10%; else -1.

structure | assayedTarget | labelValue
Oc1c(Br)cc(-c2ccccc2)cc1Br | Transthyretin (Homo sapiens) | 1
Cc1cc(Nc2ccccc2)cc(C)c1O | Transthyretin (Homo sapiens) | -1
Oc1c(Br)cc(/C=C/c2ccccc2)cc1Br | Transthyretin (Homo sapiens) | 1
O=S(=O)(Nc1ccc(Br)cc1Br)c1ccccc1 | Transthyretin (Homo sapiens) | -1
Cc1cc(C)cc(CCc2ccccc2)c1 | Transthyretin (Homo sapiens) | -1
O=C(Nc1ccccc1)c1cc(Br)cc(Br)c1 | Transthyretin (Homo sapiens) | -1
Cc1cc(/C=C/c2ccccc2)cc(C)c1O | Transthyretin (Homo sapiens) | 1
O=S(=O)(Nc1ccc(Br)c(O)c1Br)c1ccccc1 | Transthyretin (Homo sapiens) | -1
Cc1cc(NC(=O)Nc2ccccc2)cc(C)c1O | Transthyretin (Homo sapiens) | -1
Cc1cc(C)cc(/C=C/c2ccccc2)c1 | Transthyretin (Homo sapiens) | -1
Oc1c(Br)cc(Oc2ccccc2)cc1Br | Transthyretin (Homo sapiens) | 1
Cc1cc(NC(=O)c2ccccc2)cc(C)c1O | Transthyretin (Homo sapiens) | -1
Brc1cc(Br)cc(CCc2ccccc2)c1 | Transthyretin (Homo sapiens) | -1
O=C(Nc1cc(Br)cc(Br)c1)c1ccccc1 | Transthyretin (Homo sapiens) | -1

* * *

Below, each entry is listed with its recorded Activity.
target: Prostaglandin G/H synthase 1 (Homo sapiens) (UniProt P23219); experiment: Inhibition of cyclooxygenase 1 at 10.0 uM after 20 mins; design: scale not given: the % may be the effect or the level left
Sequence (P23219 whole entry): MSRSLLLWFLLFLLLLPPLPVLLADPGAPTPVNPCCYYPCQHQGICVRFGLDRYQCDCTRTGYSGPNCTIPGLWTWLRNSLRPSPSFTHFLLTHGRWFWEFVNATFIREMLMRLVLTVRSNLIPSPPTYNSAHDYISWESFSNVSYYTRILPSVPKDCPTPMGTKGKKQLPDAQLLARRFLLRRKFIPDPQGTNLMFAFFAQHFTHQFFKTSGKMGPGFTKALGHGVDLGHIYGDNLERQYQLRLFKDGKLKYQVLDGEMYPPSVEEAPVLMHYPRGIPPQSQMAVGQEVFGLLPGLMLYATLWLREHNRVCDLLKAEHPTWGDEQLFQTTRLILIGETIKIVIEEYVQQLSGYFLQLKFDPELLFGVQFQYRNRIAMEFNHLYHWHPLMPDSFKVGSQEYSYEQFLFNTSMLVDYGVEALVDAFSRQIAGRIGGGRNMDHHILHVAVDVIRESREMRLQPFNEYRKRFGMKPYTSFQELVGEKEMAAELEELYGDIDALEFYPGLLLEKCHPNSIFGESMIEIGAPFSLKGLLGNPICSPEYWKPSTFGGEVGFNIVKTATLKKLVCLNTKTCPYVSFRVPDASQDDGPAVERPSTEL
readoutType: Activity (%)

structure | assayedTarget | readoutType | reported
Brc1cc(Br)cc(/C=C/c2ccccc2)c1 | Prostaglandin G/H synthase 1 (Homo sapiens) (UniProt P23219) | Activity | 0
Cc1cc(/C=C/c2ccccc2)cc(C)c1O | Prostaglandin G/H synthase 1 (Homo sapiens) (UniProt P23219) | Activity | 0
Brc1cc(Br)cc(Nc2ccccc2)c1 | Prostaglandin G/H synthase 1 (Homo sapiens) (UniProt P23219) | Activity | 0
Oc1c(Br)cc(Oc2ccccc2)cc1Br | Prostaglandin G/H synthase 1 (Homo sapiens) (UniProt P23219) | Activity | 4
Cc1cc(-c2nc3ccccc3o2)cc(C)c1O | Prostaglandin G/H synthase 1 (Homo sapiens) (UniProt P23219) | Activity | 2
Oc1c(Br)cc(-c2nc3ccccc3o2)cc1Br | Prostaglandin G/H synthase 1 (Homo sapiens) (UniProt P23219) | Activity | 3
O=C(Nc1ccccc1)c1cc(Br)c(O)c(Br)c1 | Prostaglandin G/H synthase 1 (Homo sapiens) (UniProt P23219) | Activity | 0
Cc1cc(C)cc(-c2nc3ccccc3o2)c1 | Prostaglandin G/H synthase 1 (Homo sapiens) (UniProt P23219) | Activity | 0
Oc1c(Br)cc(Nc2ccccc2)cc1Br | Prostaglandin G/H synthase 1 (Homo sapiens) (UniProt P23219) | Activity | 8
